# system_under_test: T1, full length human PD-1 on cells (human, UniProt Q15116 25-288)
# T1 construct: Also used here for PD-1 on human T cells/PBMC; also called CHO-K1-hPD-1; hPD-1
# method_summary: flow cytometry, CHO-K1-hPD-1 cells; antibody 0.1 nM
Record form. Attribute: Mean fluorescence intensity. Fill in for each entry.
# respond with the number and nothing more

INPUT: Name the recorded Mean fluorescence intensity for chimeric anti-PD-1 antibody 21G8F11 (antibody, V domains shown, Purified from hybridoma of Harbour H2L2 mice: human variable regions, rat constant regions) VH: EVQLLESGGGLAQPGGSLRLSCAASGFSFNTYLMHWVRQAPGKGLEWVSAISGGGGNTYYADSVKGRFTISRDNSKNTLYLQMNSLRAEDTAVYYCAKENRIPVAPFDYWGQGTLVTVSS VL: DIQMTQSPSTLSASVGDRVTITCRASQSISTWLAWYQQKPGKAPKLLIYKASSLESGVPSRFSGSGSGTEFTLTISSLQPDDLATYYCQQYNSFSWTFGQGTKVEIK .
OUTPUT: 22.8

INPUT: Name the recorded Mean fluorescence intensity for chimeric anti-PD-1 antibody 226C3A7 (antibody, V domains shown, Purified from hybridoma of Harbour H2L2 mice: human variable regions, rat constant regions) VH: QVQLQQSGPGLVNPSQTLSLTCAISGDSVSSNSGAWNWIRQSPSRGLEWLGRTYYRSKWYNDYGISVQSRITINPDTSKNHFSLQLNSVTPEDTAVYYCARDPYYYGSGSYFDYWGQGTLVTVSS VL: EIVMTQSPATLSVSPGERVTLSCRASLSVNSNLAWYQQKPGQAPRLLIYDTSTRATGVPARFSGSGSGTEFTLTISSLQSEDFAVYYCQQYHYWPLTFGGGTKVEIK .
OUTPUT: 3.2

INPUT: Name the recorded Mean fluorescence intensity for chimeric anti-PD-1 antibody 76G5B3 (antibody, V domains shown, Purified from hybridoma of Harbour H2L2 mice: human variable regions, rat constant regions) VH: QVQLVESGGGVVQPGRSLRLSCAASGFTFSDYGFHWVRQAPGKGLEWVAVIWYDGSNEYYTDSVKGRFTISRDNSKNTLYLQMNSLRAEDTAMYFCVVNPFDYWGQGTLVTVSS VL: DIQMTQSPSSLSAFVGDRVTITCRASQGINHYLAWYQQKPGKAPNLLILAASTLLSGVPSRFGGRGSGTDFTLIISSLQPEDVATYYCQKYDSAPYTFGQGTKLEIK .
OUTPUT: 36.2

INPUT: Name the recorded Mean fluorescence intensity for chimeric anti-PD-1 antibody 32B5C7 (antibody, V domains shown, Purified from hybridoma of Harbour H2L2 mice: human variable regions, rat constant regions) VH: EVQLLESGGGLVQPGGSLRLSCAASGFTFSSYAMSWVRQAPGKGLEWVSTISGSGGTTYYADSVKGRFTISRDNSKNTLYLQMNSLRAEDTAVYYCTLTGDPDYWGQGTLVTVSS VL: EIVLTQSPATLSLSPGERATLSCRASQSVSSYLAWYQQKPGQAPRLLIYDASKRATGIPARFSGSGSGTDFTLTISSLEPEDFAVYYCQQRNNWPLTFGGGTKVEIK .
OUTPUT: 13.2
